Attribution: PubChem BioAssay

Assay: Restrictive medium S. cerevisiae growth inhibition, OD615, pilot screen of yeast lifespan reduction project, restrictive growth control (AID 706);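 note: modified DeaD lifespan yeast strain shifted to restrictive glucose medium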
Details: OD615, 48 h, at 10 µM, hits give high values
attribute.measured: growth inhibition (%)
Use % as the unit, but write only the number.

Entry "CCOc1ccc(C2C(C#N)=C(N)SC(N)=C2C#N)cc1OCC" : reported growth inhibition = ? -4.33

Entry "O=C(Cn1cc2c(n1)CCCC2)N1CCCC1" : reported growth inhibition = ? 1.53

Entry "CN(CCc1ccccn1)C(=O)Nc1ccc(F)cc1" : reported growth inhibition = ? -14.7

Entry "CN(C)C=NC(=O)/C(C#N)=C1\CCc2ccccc2N1" : reported growth inhibition = ? -2.15

Entry Cc1ccc(CCN2CC(C(=O)NCCCN3CCN(C)CC3)CC2=O)cc1 (stereo not drawn) : reported growth inhibition = ? -3.19

Entry "COc1ccc(CC(=O)N2CCN=C2SC)cc1" : reported growth inhibition = ? -0.34

Entry "COc1cccc(C(=O)Nc2cc(=O)n(C)c(=O)n2C)c1OC" : reported growth inhibition = ? -6.04

Entry COc1ccc(N2CSC3=C(C#N)C(c4ccc(OC)c(OC)c4)CC(=O)N3C2)c(OC)c1 (stereo not drawn) : reported growth inhibition = ? 22.1

Entry "CCOC(=O)N1CCN(C(=O)CN(c2ccc(Oc3ccccc3)cc2)S(C)(=O)=O)CC1" : reported growth inhibition = ? -15.6

Entry "COCCn1c(=O)[nH]c2cc(C(=O)NC3CCCCCC3)ccc2c1=O" : reported growth inhibition = ? -10.9

Entry Cc1ccc(NC(=O)C2CCCN(S(=O)(=O)c3ccc4c(c3)oc(=O)n4C)C2)nc1 (stereo not drawn) : reported growth inhibition = ? -2.67

Entry "CCOC(=O)c1sc(N)nc1-c1ccccc1" : reported growth inhibition = ? 1.07

Entry "C=CCSc1nc2ccccc2c(=O)[nH]1" : reported growth inhibition = ? -8.26

Entry "Cc1cc(C(C)(C)C)ccc1OCCN(C)C" : reported growth inhibition = ? -9.14

Entry "CCN1CCN(Cc2nc3c(c(=O)n(C)c(=O)n3C)n2Cc2ccccc2Cl)CC1" : reported growth inhibition = ? -13.4

Entry COc1ccc(CN2C(=O)CCC2(C)C(=O)NC2CCCC2)c(OC)c1 (stereo not drawn) : reported growth inhibition = ? -4.46

Entry "CC(=O)NCC(=O)N(c1ccccc1)C1(C(=O)NC2CCCCC2)CCCCC1" : reported growth inhibition = ? 6.72

Entry "Cc1nnc(NC(=O)CSc2nnc(CNC(=O)c3ccccc3)n2-c2ccccc2)s1" : reported growth inhibition = ? -0.57

Entry "COc1ccc(CSc2nnnn2Cc2ccccc2)cc1OC" : reported growth inhibition = ? 1.64

Entry "Cc1csc2nc(CNC(=O)C3CCCCC3)cn12" : reported growth inhibition = ? -13.2

Entry CC(C)NC(=O)C1(O)c2ccccc2NC(=O)N1c1ccc(Cl)c(Cl)c1 (stereo not drawn) : reported growth inhibition = ? -12.9

Entry "Cc1cccc(OCC(=O)NCc2ccncc2)c1C" : reported growth inhibition = ? -7.64

Entry Cc1csc(NC(=O)C(CC(C)C)NS(=O)(=O)c2ccc3c(c2)oc(=O)n3C)n1 (stereo not drawn) : reported growth inhibition = ? -3.39
